Data credit: patent US9676760B2

measuredOn: wild-type human cardiac sodium channel, hNav1.5 (Homo sapiens, UniProt Q14524)
Sequence (Q14524 whole entry): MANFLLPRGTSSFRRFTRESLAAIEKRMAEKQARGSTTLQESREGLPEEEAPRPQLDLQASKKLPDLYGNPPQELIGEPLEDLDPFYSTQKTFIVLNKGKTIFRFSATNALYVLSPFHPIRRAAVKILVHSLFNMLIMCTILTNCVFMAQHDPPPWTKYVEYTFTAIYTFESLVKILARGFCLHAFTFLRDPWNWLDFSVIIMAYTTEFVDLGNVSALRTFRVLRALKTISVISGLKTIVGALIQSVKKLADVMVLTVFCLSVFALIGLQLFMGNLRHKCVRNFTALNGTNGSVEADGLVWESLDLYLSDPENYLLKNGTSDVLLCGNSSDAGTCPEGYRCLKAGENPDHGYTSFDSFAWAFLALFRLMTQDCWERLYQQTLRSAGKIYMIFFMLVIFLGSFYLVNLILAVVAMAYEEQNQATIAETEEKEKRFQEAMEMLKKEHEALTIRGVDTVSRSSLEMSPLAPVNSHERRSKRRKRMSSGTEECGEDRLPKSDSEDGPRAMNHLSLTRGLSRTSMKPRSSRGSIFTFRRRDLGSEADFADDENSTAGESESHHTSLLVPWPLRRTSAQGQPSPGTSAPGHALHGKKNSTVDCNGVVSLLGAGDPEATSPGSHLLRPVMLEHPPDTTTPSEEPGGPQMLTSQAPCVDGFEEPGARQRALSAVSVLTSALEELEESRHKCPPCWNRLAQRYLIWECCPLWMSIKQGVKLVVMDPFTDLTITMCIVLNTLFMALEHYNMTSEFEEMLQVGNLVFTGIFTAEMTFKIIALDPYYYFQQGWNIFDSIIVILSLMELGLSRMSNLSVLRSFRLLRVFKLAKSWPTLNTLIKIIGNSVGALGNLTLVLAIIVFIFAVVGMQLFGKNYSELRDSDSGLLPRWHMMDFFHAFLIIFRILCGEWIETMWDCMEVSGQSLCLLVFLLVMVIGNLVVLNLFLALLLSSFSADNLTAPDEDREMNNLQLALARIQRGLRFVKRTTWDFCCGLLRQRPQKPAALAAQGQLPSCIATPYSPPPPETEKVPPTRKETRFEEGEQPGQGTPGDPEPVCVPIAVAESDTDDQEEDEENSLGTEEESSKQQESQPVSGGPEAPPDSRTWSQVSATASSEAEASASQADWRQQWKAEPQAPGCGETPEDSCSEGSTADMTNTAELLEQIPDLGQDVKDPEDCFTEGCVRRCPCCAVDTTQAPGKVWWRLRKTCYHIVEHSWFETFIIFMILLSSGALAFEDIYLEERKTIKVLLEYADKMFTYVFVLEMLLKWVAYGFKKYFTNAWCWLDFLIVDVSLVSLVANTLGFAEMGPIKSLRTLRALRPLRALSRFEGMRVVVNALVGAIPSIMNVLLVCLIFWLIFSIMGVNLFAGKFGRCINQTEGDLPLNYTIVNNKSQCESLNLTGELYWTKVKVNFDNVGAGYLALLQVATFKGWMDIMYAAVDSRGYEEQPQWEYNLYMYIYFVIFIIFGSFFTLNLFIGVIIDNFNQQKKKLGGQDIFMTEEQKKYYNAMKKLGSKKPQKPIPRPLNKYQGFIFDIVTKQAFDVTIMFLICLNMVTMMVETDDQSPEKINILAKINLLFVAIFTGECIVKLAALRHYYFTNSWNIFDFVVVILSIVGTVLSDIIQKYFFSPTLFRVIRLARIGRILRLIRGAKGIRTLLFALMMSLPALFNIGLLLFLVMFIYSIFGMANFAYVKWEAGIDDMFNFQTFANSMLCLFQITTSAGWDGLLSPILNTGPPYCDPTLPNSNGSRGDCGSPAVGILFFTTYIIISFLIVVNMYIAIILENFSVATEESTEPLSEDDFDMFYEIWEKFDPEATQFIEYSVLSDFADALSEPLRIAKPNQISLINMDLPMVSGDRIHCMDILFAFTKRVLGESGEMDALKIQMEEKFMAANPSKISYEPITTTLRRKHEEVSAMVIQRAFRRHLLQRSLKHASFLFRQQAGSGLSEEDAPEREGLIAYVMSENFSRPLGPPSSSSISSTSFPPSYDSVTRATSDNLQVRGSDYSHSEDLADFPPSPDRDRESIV
methodDescription: Late INa screening assay (QPatch whole cell patch clamp, HEK293)
Type: cell-based
reportedConditions: HEK293, % Inhibition at 1 uM; read-out: Late INa*
measurementName: inhibition at 1 µM (%)
Use % as the unit, but write only the number.

Supply inhibition at 1 µM value. Item: O=C1c2cc(C#Cc3ccc(C(F)(F)F)cc3)ccc2OCCN1Cc1ncccn1
38

Supply inhibition at 1 µM value. Item: O=C1c2cc(-c3ccc(C(F)(F)F)cc3Cl)ccc2OCCN1Cc1ncccn1
35

Supply inhibition at 1 µM value. Item: O=C1c2cc(-c3ccc(OC(F)(F)F)cc3)ccc2OCCN1Cc1ccc2ccccc2n1
34

Supply inhibition at 1 µM value. Item: O=C1c2cc(-c3ccc(C(F)(F)F)cc3)ccc2OC[C@H]2CN(CC(F)F)CCN12
30

Supply inhibition at 1 µM value. Item: N#Cc1cccc(CN2CCOc3ccc(-c4ccc(OC(F)(F)F)cc4)cc3C2=O)n1
47

Supply inhibition at 1 µM value. Item: CN1CCOc2ccc(-c3ccc(OC(F)(F)F)cc3)cc2C1=O
25

Supply inhibition at 1 µM value. Item: O=C1c2cc(-c3ccc(C(F)(F)F)cc3)ccc2OCCN1Cc1cn2ccccc2n1
33

Supply inhibition at 1 µM value. Item: O=C1c2cc(C#Cc3ccc(OC(F)(F)F)cc3)ccc2OCCN1Cc1ncccn1
61

Supply inhibition at 1 µM value. Item: CC1CC=C(c2ccc3c(c2)C(=O)N(Cc2ncccn2)CCO3)CC1 (stereo not drawn)
49

Supply inhibition at 1 µM value. Item: COc1cc(OC)nc(CN2CCOc3ccc(-c4ccc(OC(F)(F)F)cc4)cc3C2=O)n1
34

Supply inhibition at 1 µM value. Item: O=C1c2cc(-c3ccc(OC(F)(F)F)cc3)ccc2OCCN1Cn1cc(Cl)cn1
48

Supply inhibition at 1 µM value. Item: CCc1ccc(-c2ccc3c(c2)C(=O)N(Cc2ncccn2)CCO3)cc1
54

Supply inhibition at 1 µM value. Item: Cc1ccnc(CN2CCOc3cnc(-c4ccc(OC(F)(F)F)cc4)cc3C2=O)n1
36

Supply inhibition at 1 µM value. Item: O=C1c2cc(-c3ccc(C(F)(F)F)cc3)ccc2OC[C@H]2CN(CC(F)(F)F)CCN12
31

Supply inhibition at 1 µM value. Item: O=C1c2cc(-c3ccc(OC(F)(F)F)cc3)ccc2OCCN1Cc1ncccn1
42

Supply inhibition at 1 µM value. Item: O=C1c2cc(-c3ccc(OC(F)(F)F)cc3)ncc2OCCN1Cc1ccccc1
53

Supply inhibition at 1 µM value. Item: COc1cccnc1CN1CCOc2ccc(-c3ccc(OC(F)(F)F)cc3)cc2C1=O
65

Supply inhibition at 1 µM value. Item: O=C1c2cc(-c3ccc(Cl)cc3)ccc2OCCN1Cc1ncccn1
41
